Target: soluble TSHR protein (ELISA coat) (human, UniProt P16473 22-260, limits assumed)
Assay: ELISA, plate coated with soluble TSHR, antibody at 100 nM, anti-human IgG Fc-HRP;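 note: binding of antibody variants to soluble TSHR coated at 2 µg/ml, with colour developed using TMB substrate and stopped with H2SO4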
property_label: ELISA (OD 450) at 100 nM
Report only the number, with the unit OD 450 understood.

// lookup ELISA (OD 450) at 100 nM for TSHB-23 (antibody, V domains shown) VH: EVQLVQSGAEVKKPGESLKISCKASGYSLTDNWIGWVRQKPGKGLEWMGIIYPGDSDTRYSPSFQGQVTISADKSISTAYLQWSSLKASDTAIYYCVGLDWNYNPLRYWGQGTLVTVSS VL: QSVLTQPPSVSAAPGQKVTISCSGSSSDIGSNYVSWYQQLPGTAPKLLIYDNNKRPSGIPDRFSGSKSGTSATLGITGLQTGDEADYYCGTWDSRLGIAVFGGGTQLTVL
0.466

# query: ELISA (OD 450) at 100 nM of entry TSHB-14 (antibody, V domains shown) VH: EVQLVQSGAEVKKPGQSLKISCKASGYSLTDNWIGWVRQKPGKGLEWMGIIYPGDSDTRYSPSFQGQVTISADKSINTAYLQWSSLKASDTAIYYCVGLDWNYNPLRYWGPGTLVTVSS VL: QSVLTQPPSVSAAPGQKVTISCSGSSSDIGSNYVSWYQQLPGTAPKLLIYDNNKRPSGIPDRFSGSKSGTSATLGITGLQTGDEADYYCGTWDSRWGIAVFGGGTQLTVL
0.522

// query ELISA (OD 450) at 100 nM value for entry TSHB-19 (antibody, V domains shown) VH: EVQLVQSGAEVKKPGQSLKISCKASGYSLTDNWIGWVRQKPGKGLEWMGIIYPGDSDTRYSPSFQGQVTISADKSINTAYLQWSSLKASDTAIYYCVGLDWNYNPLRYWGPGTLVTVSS VL: QSVLTQPPSVSAAPGQKVTISCSGSSSDIGSNWVSWYQQLPGTAPKLLIYDNNKRPSGIPDRFSGSKSGTSATLGITGLQTGDEADYYCGTWDSRLGIAVFGGGTQLTVL
0.47

Can you share its ELISA (OD 450) at 100 nM? I mean this binder: TSHB-12 (antibody, V domains shown) VH: EVQLVQSGAEVKKPGASVKVSCKASGYSLTDNWIGWVRQAPGQGLEWMGIIYPGDSDTRYAQKFQGRVTMTADKSTSTVYMELSSLRSEDTAVYYCVGLDWNYNPLRYWGQGTLVTVSS VL: QSVLTQPPSVSAAPGQKVTISCSGSSSDIGSNYVSWYQQFPGTAPKLLIYDNNKRPSAIPDRFSGSKSGTSATLGITGLQTGDEADYYCGTWDSRLGIAVFGGGTQLTVL
0.475

The record that follows has no ELISA (OD 450) at 100 nM shown yet.
Can you share its ELISA (OD 450) at 100 nM? I mean this binder: TSHB-16 (antibody, V domains shown) VH: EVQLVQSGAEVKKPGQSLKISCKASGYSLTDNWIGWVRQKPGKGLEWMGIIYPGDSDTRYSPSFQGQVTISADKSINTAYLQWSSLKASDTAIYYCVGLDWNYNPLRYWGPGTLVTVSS VL: QSVLTQPPSVSAAPGQKVTISCSGSSSDIGANYVSWYQQLPGTAPKLLIYDNNKRPSGIPDRFSGSKSGTSATLGITGLQTGDEADYYCGTWDSRLGIAVFGGGTQLTVL
0.487
